# target or test system: Prostaglandin G/H synthase 2 (Homo sapiens)
# method notes: Inhibition of human COX2 assessed as reduction in PGF2alpha level at 100 uM using arachidonic acid as substrate preincubated for 10 mins followed by substrate addition by ELISA relative to control
Label false (0) if inhibition falls below 30%; label true (1) in every other case.

See these solved cases before continuing.
[[record]]
smiles_record = "Oc1ccccc1/C=C/c1ccncc1"
class = "false (0)"

[[record]]
smiles_record = "CCOc1ccc(/C=C/c2ccc([N+](=O)[O-])cc2[N+](=O)[O-])cc1"
class = "true (1)"

[[record]]
smiles_record = "CC(=O)Oc1ccc(/C=C/c2ccc(OC(C)=O)cc2)cc1"
class = "false (0)"

[[record]]
smiles_record = "Oc1ccc(/C=C/c2ccc(Br)cc2)cc1"
class = "false (0)"

[[record]]
smiles_record = "CCOc1cccc(/C=C/c2ccc([N+](=O)[O-])cc2[N+](=O)[O-])c1"
class = "false (0)"


Task: I'd appreciate it if you could say whether O=[N+]([O-])c1ccc(/C=C/c2ccc(O)cc2)c([N+](=O)[O-])c1 has inhibition at least equal to 30%.
Result: false (0)

---

# target or test system: Prostaglandin G/H synthase 2 (Homo sapiens)
# method notes: Inhibition of human COX2 assessed as reduction in PGF2alpha level at 100 uM using arachidonic acid as substrate preincubated for 10 mins followed by substrate addition by ELISA relative to control
readout type: inhibition

Report inhibition for each item below.
1. CCOc1cccc(/C=C/c2ccc([N+](=O)[O-])cc2)c1
2. O=[N+]([O-])c1ccc(/C=C/c2ccccc2)cc1
3. Oc1ccc(/C=C/c2cc[n+](Cc3ccc(Cl)cc3)cc2)cc1
4. Oc1ccc(/C=C/c2ccncc2)cc1
5. CC(=O)Oc1ccc(/C=C/c2ccccc2)cc1
6. CCOc1ccc(/C=C/c2ccc(Cl)cc2)cc1

Result:
["23.4%", "35%", "5.38%", "8.88%", "39.9%", "12.3%"]

Task: Given Oc1cccc(/C=C/c2ccncc2)c1 , state its recorded inhibition.
Result: 20.4%

These entries and their values trace back to ChEMBL document CHEMBL4177711.
